Species: Cavia porcellus
Assay: animal or person
Conditions: Hartley, po, 0.75 h, read-out: INH
Recorded inhibition in vivo at 1 mg/kg by entry
Just the number plus its unit, please.

q: Could you please provide reported inhibition in vivo at 1 mg/kg for COc1ccc(-n2nnnc2C(F)(F)F)cc1CN[C@H]1CCN(S(C)(=O)=O)C[C@H]1c1ccccc1 (racemic) ? Thanks!
a: 18%

q: Could you please provide reported inhibition in vivo at 1 mg/kg for COc1ccc(-n2nnnc2C(F)(F)F)cc1CN[C@H]1CCN(C(=O)CN(C)C(C)=O)C[C@H]1c1ccccc1 (racemic) ? Thanks!
a: 74%

q: Could you please provide reported inhibition in vivo at 1 mg/kg for COc1ccc(-n2nnnc2C(F)(F)F)cc1CN[C@H]1CCN(C(=O)CCNC(C)=O)C[C@H]1c1ccccc1.Cl (racemic) ? Thanks!
a: 79%

q: Could you please provide reported inhibition in vivo at 1 mg/kg for COc1ccc(-n2nnnc2C(F)(F)F)cc1CN[C@H]1CCN(C(=O)C2CCN(C(C)=O)CC2)C[C@H]1c1ccccc1.Cl (racemic) ? Thanks!
a: 85%

q: Could you please provide reported inhibition in vivo at 1 mg/kg for CCNC(=O)N1CC[C@H](NCc2cc(-n3nnnc3C(F)(F)F)ccc2OC2CC2)[C@H](c2ccccc2)C1 (racemic) ? Thanks!
a: 94%

###

Test: physchem
Conditions: buffer, pH 7.4
Description: Lipophilicity, log D of the compound at pH 7.4
assay.readout: logD
A bare number is all that is needed in reply.

Reference set, count: 6
> print(dat)
                                   molecule  measured.number
1  COc1ccc(-n2nnnc2C(F)(F)F)cc1CN[C@H]1CCN(C(=O)CCNC(C)=O)C[C@H]1c1ccccc1.Cl (racemic)             2.35
2  COc1ccc(-n2nnnc2C(F)(F)F)cc1CN[C@H]1CCN(C(C)=O)C[C@H]1c1ccccc1.Cl (racemic)             2.69
3  COc1ccc(-n2nnnc2C(F)(F)F)cc1CN[C@H]1CCN(C(=O)NC(C)C)C[C@H]1c1ccccc1 (racemic)             3.09
4  COc1ccc(-n2nnnc2C(F)(F)F)cc1CN[C@H]1CCN(C(=O)C2CCN(C(C)=O)CC2)C[C@H]1c1ccccc1.Cl (racemic)             2.51
5  COc1ccc(-n2nnnc2C(F)(F)F)cc1CN[C@H]1CCN(C(=O)CCCNC(C)=O)C[C@H]1c1ccccc1 (racemic)             2.43
6  COc1ccc(-n2nnnc2C(F)(F)F)cc1CN[C@H]1CCN(C(=O)C2CN(C(C)=O)C2)C[C@H]1c1ccccc1 (racemic)             2.31

Consider the additional molecule presented here.
q: Could you please provide reported logD for COc1ccc(-n2nnnc2C(F)(F)F)cc1CN[C@H]1CCN(C(=O)NCC(F)(F)F)C[C@H]1c1ccccc1 (racemic) ? Thanks!
a: 3.03

###

Test system: Cavia porcellus
Test: Antagonist activity at NK1 receptor in po dosed Hartley guinea pig assessed as inhibition of GR73632-induced hypermotility measured after 0.75 hrs
Format: functional
Conditions: Cavia porcellus, Hartley, po, 0.75 h; read-out: ID50 (the source's name)
assay.readout: ED50 (mg/kg)
Use mg/kg as the unit, but write only the number.

Reference set, count: 3
> print(dat)
                                   compound  measure.unit  measured.number
1  COc1ccc(-n2nnnc2C(F)(F)F)cc1CN[C@H]1CCN(C(=O)CCNC(C)=O)C[C@H]1c1ccccc1.Cl (racemic)         mg/kg             0.34
2  COc1ccc(-n2nnnc2C(F)(F)F)cc1CN[C@H]1CCN(C(=O)C2CCN(C(C)=O)CC2)C[C@H]1c1ccccc1.Cl (racemic)         mg/kg             0.33
3  COc1ccc(-n2nnnc2C(F)(F)F)cc1CN[C@H]1CCN(C(C)=O)C[C@H]1c1ccccc1.Cl (racemic)         mg/kg              0.2

Consider the additional compound presented here.
q: Could you please provide reported ED50 for CCNC(=O)N1CC[C@H](NCc2cc(-n3nnnc3C(F)(F)F)ccc2OC)[C@H](c2ccccc2)C1.Cl (racemic) ? Thanks!
a: 0.37
